Attribution: patent US20110039721A1

- System: mRNA expressed from the genes (A) to (D) in rat liver
- Test Details: Behavior of genes (mRNA expression level, oligo-DNA microarray) in rat liver after 28-day oral administration
- Format: in vivo
- Reported Conditions: gene group (C); Unigene No. Rn.144946; mRNA vs vehicle control group
Measurement Kind: Behavior of gene caused by administration of chemical substance, Gene No. 1131

Examples with answers:
CC/C(=C(/CC)c1ccc(O)cc1)c1ccc(O)cc1 :: +
O=C(O)C(Cl)(Cl)Cl :: −
CCC1(c2ccccc2)C(=O)NC(=O)NC1=O :: −
CCN(N=O)C(N)=O :: −
Cc1ccc2cc3c(ccc4ccccc43)c3c2c1CC3 :: −

May I ask what Behavior of gene caused by administration of chemical substance, Gene No. 1131 has been recorded for CCCCC(CC)COC(=O)c1ccccc1C(=O)OCC(CC)CCCC (centres unmarked) [TS002, Di(2-ethylhexyl)phthalate] ? +

Tell me the measured Behavior of gene caused by administration of chemical substance, Gene No. 1131 of `Cc1c(N)cccc1N` , please. +

Recorded Behavior of gene caused by administration of chemical substance, Gene No. 1131 for `Cn1c(N)nc2ncc(-c3ccccc3)cc21` , please? −

Would you mind telling me what Behavior of gene caused by administration of chemical substance, Gene No. 1131 value was observed for `C#C[C@]1(O)CC[C@H]2[C@@H]3CCc4cc(O)ccc4[C@H]3CC[C@@]21C` ? +

Recorded Behavior of gene caused by administration of chemical substance, Gene No. 1131 of `CN(C)c1ccc(N=Nc2ccccc2)cc1` , please. −

What does the data say about its Behavior of gene caused by administration of chemical substance, Gene No. 1131? Entry: O=C(O)C1C(C(=O)O)C2(Cl)C(Cl)=C(Cl)C1(Cl)C2(Cl)Cl (centres unmarked) −

* * *

- Test system: mRNA expressed from the genes (A) to (D) in rat liver
- Test Details: Behavior of genes (mRNA expression level, oligo-DNA microarray) in rat liver after 28-day oral administration
- Type: in vivo
- Reported Conditions: gene group (C); Unigene No. Rn.123063; mRNA vs vehicle control group
Measurement Kind: Behavior of gene caused by administration of chemical substance, Gene No. 6303

Cc1cccc(N=Nc2ccc(N(C)C)cc2)c1 :: +
Cc1c2ccccc2c(C)c2c1ccc1ccccc12 [TS047, 7,12-Dimethylbenz [a]anthracene] :: −
Clc1ccc(Cl)cc1 :: +
Cc1ccc2cc3c(ccc4ccccc43)c3c2c1CC3 :: −

Look up Behavior of gene caused by administration of chemical substance, Gene No. 6303: c1ccc2c(c1)cc1ccc3cccc4ccc2c1c34 [TS063, Benzo[a]pyrene] −

Requested read-out: Behavior of gene caused by administration of chemical substance, Gene No. 6303. Entry: O=[N+]([O-])c1cc[n+]([O-])c2ccccc12 [TS049, 4-Nitroquinoline-1-oxide] −

# Behavior of gene caused by administration of chemical substance, Gene No. 6303 lookup, item `CN(C)c1ccc(N=Nc2ccccc2)cc1` +

* * *

- System: mRNA expressed from the genes (A) to (D) in rat liver
- Test Details: Behavior of genes (mRNA expression level, oligo-DNA microarray) in rat liver after 28-day oral administration
- Assay type: in vivo
- Reported Conditions: gene group (D); Unigene No. Rn.9939; mRNA vs vehicle control group
Measurement Kind: Behavior of gene caused by administration of chemical substance, Gene No. 5726

Guide cases for Behavior of gene caused by administration of chemical substance, Gene No. 5726, answers given:
ClC=C(Cl)Cl [TS022, Trichloroethylene] :: −
Cc1cccc(N=Nc2ccc(N(C)C)cc2)c1 [TS076, 3′-Methyl-4-dimethylaminoazobenzene] :: −
COc1ccc(O)c(C(C)(C)C)c1 [TS023, Butylated hydroxyanisole] :: −
c1ccc2cc3c(ccc4ccccc43)cc2c1 [TS046, Benz[a]anthracene] :: +

I'd like to know its Behavior of gene caused by administration of chemical substance, Gene No. 5726. The compound in question is CCOC(=O)C(C)(C)Oc1ccc(Cl)cc1 [TS001, Clofibrate] −

State the recorded Behavior of gene caused by administration of chemical substance, Gene No. 5726 for this entry: O=[N+]([O-])c1cc[n+]([O-])c2ccccc12 [TS049, 4-Nitroquinoline-1-oxide] +

I'd like to know its Behavior of gene caused by administration of chemical substance, Gene No. 5726. The compound in question is CCC1(c2ccccc2)C(=O)NC(=O)NC1=O [TS008, Phenobarbital] −

Form field: reported Behavior of gene caused by administration of chemical substance, Gene No. 5726 of Clc1c(Cl)c(Cl)c(Cl)c(Cl)c1Cl [TS020, Hexachlorobenzene] −

Fill in: Behavior of gene caused by administration of chemical substance, Gene No. 5726 of Cn1c(N)nc2ncc(-c3ccccc3)cc21 [TS045] is ___ +

Look up Behavior of gene caused by administration of chemical substance, Gene No. 5726 for this compound: CCCCC(CC)COC(=O)c1ccccc1C(=O)OCC(CC)CCCC (centres unmarked) [TS002, Di(2-ethylhexyl)phthalate] −

For ClC1=C(Cl)C2(Cl)C3C4C=CC(C4)C3C1(Cl)C2(Cl)Cl (centres unmarked) [TS015, Aldrin] , what is its reported Behavior of gene caused by administration of chemical substance, Gene No. 5726? −

* * *

- System: mRNA expressed from the genes (A) to (D) in rat liver
- Test Details: Behavior of genes (mRNA expression level, oligo-DNA microarray) in rat liver after 28-day oral administration
- Assay type: in vivo
- Reported Conditions: gene group (C); Unigene No. Rn.185941; mRNA vs vehicle control group
Measurement Kind: Behavior of gene caused by administration of chemical substance, Gene No. 154

The cases that follow already have their Behavior of gene caused by administration of chemical substance, Gene No. 154 on record.
ClC=C(Cl)Cl :: −
C#C[C@]1(O)CC[C@H]2[C@@H]3CCc4cc(O)ccc4[C@H]3CC[C@@]21C :: +
CCCCC(CC)COC(=O)c1ccccc1C(=O)OCC(CC)CCCC (stereo not shown) [TS002, Di(2-ethylhexyl)phthalate] :: −
O=C(O)C(Cl)(Cl)Cl :: −
CC/C(=C(/CC)c1ccc(O)cc1)c1ccc(O)cc1 :: +
Clc1ccc(Cl)cc1 :: −
Cc1cccc(N=Nc2ccc(N(C)C)cc2)c1 :: +
c1ccc2cc3c(ccc4ccccc43)cc2c1 [TS046, Benz[a]anthracene] :: +

Write down the reported Behavior of gene caused by administration of chemical substance, Gene No. 154 of `Clc1c(Cl)c(Cl)c(Cl)c(Cl)c1Cl` , test system: mRNA expressed from the genes (A) to (D) in rat liver. −

GET /values?readout=Behavior of gene caused by administration of chemical substance, Gene No. 154&system=mRNA expressed from the genes (A) to (D) in rat liver&item= COc1ccc(O)c(C(C)(C)C)c1 [TS023, Butylated hydroxyanisole] +

* * *

- Test system: mRNA expressed from the genes (A) to (D) in rat liver
- Test Details: Behavior of genes (mRNA expression level, oligo-DNA microarray) in rat liver after 28-day oral administration
- Format: in vivo
- Reported Conditions: gene group (C), Unigene No. Rn.9757
Measurement Kind: Behavior of gene caused by administration of chemical substance, Gene No. 1119

Below, each entry is followed by its recorded Behavior of gene caused by administration of chemical substance, Gene No. 1119 result.
Nc1cc([N+](=O)[O-])ccc1C(=O)O [TS082, 4-Nitroanthranilic acid] :: +
CCC[N+](=O)[O-] [TS036, 1-Nitropropane] :: +
O=C1O[C@H]([C@@H](O)CO)C(O)=C1O [TS010, L-Ascorbic acid] :: −
CC(=O)Nc1ccc(O)cc1 [TS031, Acetaminophen] :: −
CC1CCC(C(C)C)C(O)C1 (racemic) [TS034, DL-Menthol] :: −

What measured Behavior of gene caused by administration of chemical substance, Gene No. 1119 is associated with O=C(OC[C@H]1O[C@@H](OC(=O)c2cc(O)c(O)c(OC(=O)c3cc(O)c(O)c(O)c3)c2)[C@H](OC(=O)c2cc(O)c(O)c(OC(=O)c3cc(O)c(O)c(O)c3)c2)[C@@H](OC(=O)c2cc(O)c(O)c(OC(=O)c3cc(O)c(O)c(O)c3)c2)[C@@H]1OC(=O)c1cc(O)c(O)c(OC(=O)c2cc(O)c(O)c(O)c2)c1)c1cc(O)c(O)c(OC(=O)c2cc(O)c(O)c(O)c2)c1 [TS052, Tannic acid] on mRNA expressed from the genes (A) to (D) in rat liver? −

Lab note: need Behavior of gene caused by administration of chemical substance, Gene No. 1119 for O=C1CCCCCN1 [TS074, Caprolactam] on mRNA expressed from the genes (A) to (D) in rat liver, anyone have it? −

* * *

- System: mRNA expressed from the genes (A) to (D) in rat liver
- Test Details: Behavior of genes (mRNA expression level, oligo-DNA microarray) in rat liver after 28-day oral administration
- Assay type: in vivo
- Reported Conditions: gene group (C); Unigene No. Rn.123063; mRNA vs vehicle control group
Measurement Kind: Behavior of gene caused by administration of chemical substance, Gene No. 6303

CCCCC(CC)COC(=O)c1ccccc1C(=O)OCC(CC)CCCC (stereo not shown) [TS002, Di(2-ethylhexyl)phthalate] :: −
CCN(N=O)C(N)=O :: +
Cc1c(N)cccc1N :: −
CC/C(=C(/CC)c1ccc(O)cc1)c1ccc(O)cc1 :: +
